B1: LINE1-full (parent)
chain: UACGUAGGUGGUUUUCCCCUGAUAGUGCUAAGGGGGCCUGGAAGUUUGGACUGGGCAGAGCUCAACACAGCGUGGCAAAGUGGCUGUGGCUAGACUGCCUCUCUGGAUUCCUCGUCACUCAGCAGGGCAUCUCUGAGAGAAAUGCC

- Variants of: B1
- Protocol: self-cleavage, relative activity (ratio to wild type); higher = more cleavage; in vitro, sequencing; the parent is a self-cleaving ribozyme

Mutant id: U14C U143C
self-cleavage: 1.02
--
Mutant id: G32A A43G
self-cleavage: 1.25
--
Mutant id: A121U U132C
self-cleavage: 1.36
--
Mutant id: A50C U87C
self-cleavage: 0.13
--
Mutant id: U87G A124C
self-cleavage: 0.32
--
Mutant id: U15C G93A
self-cleavage: 0.07
--
Mutant id: U15C C84G
self-cleavage: 0.21
--
Mutant id: U12G A64U
self-cleavage: 0.83
--
Mutant id: A2U U132C
self-cleavage: 1.09
--
Mutant id: G10A U119A
self-cleavage: 0.93
--
Mutant id: A69U G126A
self-cleavage: 0.05
--
Mutant id: G34U U109C
self-cleavage: 1.52
--
Mutant id: U5C U115A
self-cleavage: 0.91
--
Mutant id: A129G A142G
self-cleavage: 1.67
--
Mutant id: U5C A140G
self-cleavage: 1.12
--
Mutant id: U100C A124U
self-cleavage: 2.22
--
Mutant id: A43U U102C
self-cleavage: 0.25
--
Mutant id: C111U G114A
self-cleavage: 1.12
--
Mutant id: A78C U109C
self-cleavage: 2.32
--
Mutant id: U13C G48U
self-cleavage: 0.91
--
Mutant id: U73A G144A
self-cleavage: 1.4
--
Mutant id: A43U A78C
self-cleavage: 2.35
--
Mutant id: C76U A141G
self-cleavage: 1.18
--
Mutant id: G33U A124U
self-cleavage: 1.84
--
Mutant id: U46C G72U
self-cleavage: 1.35
--
Mutant id: G80A A136U
self-cleavage: 2.49
--
Mutant id: A94U A117G
self-cleavage: 0.38
--
Mutant id: C66U U73A
self-cleavage: 0.03
--
Mutant id: G4C U115C
self-cleavage: 2.15
--
Mutant id: A31G U45A
self-cleavage: 0.85
--
Mutant id: A79U U108C
self-cleavage: 2.3
--
Mutant id: G4A A121U
self-cleavage: 1.22
--
Mutant id: A65G U130C
self-cleavage: 0.1
--
Mutant id: U45G C113U
self-cleavage: 0.88
--
Mutant id: G49C
self-cleavage: 1.15
--
Mutant id: U26A G126A
self-cleavage: 0.82
--
Mutant id: U14C U52G
self-cleavage: 1.51
--
Mutant id: A22G G54U
self-cleavage: 0.23
--
Mutant id: A24G A94G
self-cleavage: 0.31
--
Mutant id: U108C U119A
self-cleavage: 1.53
--
Mutant id: G49C A140G
self-cleavage: 1.51
--
Mutant id: U14C A140G
self-cleavage: 0.87
--
Mutant id: A59G C61G
self-cleavage: 0
--
Mutant id: A22G A50U
self-cleavage: 1.32
--
Mutant id: G70C A142G
self-cleavage: 0.14
--
Mutant id: U20A U119A
self-cleavage: 1.47
--
Mutant id: U91A U130C
self-cleavage: 0.79
--
Mutant id: U39A A92G
self-cleavage: 0.1
--
Mutant id: U109C A124U
self-cleavage: 1.64
--
Mutant id: U39C U96C
self-cleavage: 0.05
--
Mutant id: A79U C101A
self-cleavage: 1.92
--
Mutant id: U15A U73C
self-cleavage: 1.06
--
Mutant id: G58U A59G
self-cleavage: 0.06
--
Mutant id: G114C A142G
self-cleavage: 1.78
--
Mutant id: G97A U134C
self-cleavage: 0.07
--
Mutant id: C84U G114U
self-cleavage: 0.15
--
Mutant id: U15A U23A
self-cleavage: 0.76
--
Mutant id: U5C U9A
self-cleavage: 0.74
--
Mutant id: A65G U73C
self-cleavage: 0.06
--
Mutant id: U46G U112C
self-cleavage: 1.48
--
Mutant id: G35A U100A
self-cleavage: 0.31
--
Mutant id: U29C U108G
self-cleavage: 1.2
--
Mutant id: G4A U81A
self-cleavage: 1.34
--
Mutant id: A30U A142G
self-cleavage: 1.28
--
Mutant id: U130C C131U
self-cleavage: 1.28
--
Mutant id: G89U A142G
self-cleavage: 0.03
--
Mutant id: G8A A79G
self-cleavage: 1.36
--
Mutant id: A94C A107G
self-cleavage: 0.13
--
Mutant id: A124C G137U
self-cleavage: 0.75
--
Mutant id: U20A U39C
self-cleavage: 0.93
--
Mutant id: A67U U112C
self-cleavage: 0.09
--
Mutant id: U14A A57G
self-cleavage: 0.75
--
Mutant id: U9A A77G
self-cleavage: 1.61
--
Mutant id: U14A U47A
self-cleavage: 0.81
--
Mutant id: U52C A124G
self-cleavage: 0.48
--
Mutant id: G40A G139A
self-cleavage: 0.58
--
Mutant id: G35C U47C
self-cleavage: 1.84
--
Mutant id: A92G G97C
self-cleavage: 0.06
--
Mutant id: U14C U112G
self-cleavage: 1.75
--
Mutant id: C51U A78U
self-cleavage: 2.19
--
Mutant id: G4A A24G
self-cleavage: 0.75
